Taken from PubChem BioAssay (NCI).

Test system: NCI-H522 lung
run-description: NCI tumour cell line growth inhibition, 48 h
reported-property: TGI (µM)
Answers are plain numbers, in µM.

As a guide, the following entries are already answered.
[[record]]
sample_smiles = "C[n+]1cccc(NC(=O)c2ccc3ccc4ccc(C(=O)Nc5ccc[n+](C)c5)nc4c3n2)c1"
unit_string = "µM"
val = 23

[[record]]
sample_smiles = "CCCCCCCCCCCCCCCC(=O)NS(=O)(=O)OC[C@H]1O[C@@H](n2cnc3c(N)ncnc32)[C@H](O)[C@@H]1O"
unit_string = "µM"
val = 0.427


Field TGI (entry `COc1ccc2nc3cc([N+](=O)[O-])ccc3c(NCCO)c2c1` ) reads 2.84

---

System: U251 CNS
run-description: NCI tumour cell line growth inhibition, 48 h
I'd appreciate it if you could supply TGI values for the items below.

[[record]]
molecule = "O=C1CSC(c2ccccc2)N1c1ccc(-c2ccc(-n3c(-c4ccccc4)nc4ccccc4c3=O)cc2)cc1 (stereo not given)"
val = "> 100 µM"

[[record]]
molecule = "COc1ccc(/C=C2/SC(=Nc3ccccc3)N(NC(=O)Cc3ccccc3)C2=O)cc1"
val = "> 100 µM"

[[record]]
molecule = "C=C(C)COc1ccc2c(c1)CCC1C2CCC2(C)C(=O)/C(=N/O)CC12 (stereo not given)"
val = "16.3 µM"

[[record]]
molecule = "CO/N=C(/C)COc1ccc2c(c1)oc(=O)c1cc(OC)ccc12"
val = "> 100 µM"

[[record]]
molecule = "NC1=NC(c2ccc(Cl)cc2)=CC(c2cccc(Cl)c2)S1 (stereo not given)"
val = "55.5 µM"


Record TGI for all entries; do not skip any.
1. COc1ccc(OC)c(C2=C(c3cn(C)c4ccccc34)C(=O)NC2=O)c1
2. Cc1ccc(NC(=S)NNC(=S)Nc2ccc(C)cc2)cc1

[out]
1. > 25 µM
2. > 100 µM

Record TGI for all entries; do not skip any.
1. O=C1NC(c2ccc3ccccc3c2)Nc2ccccc21 (stereo not given)
2. O=C1C(Cl)C(c2ccc(O)cc2)N1n1cnc2ccccc2c1=O (stereo not given)
3. CS(=O)(=O)N1CCC(Nc2ncc(C(=O)c3c(F)cccc3F)c(N)n2)CC1

[out]
> 100 µM
> 100 µM
> 25 µM

---

I'd appreciate it if you could supply TGI values for the items below.
Tested on: UACC-62 melanoma
run-description: NCI tumour cell line growth inhibition, 48 h

As a guide, the following entries are already answered.
[[record]]
compound = "O=C(Nc1ccccc1)OCCN=c1c2ccccc2ccc2ccccc12"
val = "49.1 µM"

[[record]]
compound = "COc1cc(/C=C2\\CCC/C(=C\\c3cc(CN4CCCC4)c(O)c(OC)c3)C2=O)cc(CN2CCCC2)c1O"
val = "12.9 µM"

[[record]]
compound = "CC(C)CCNC(=O)c1ccc(CNC(=O)/C=C/c2ccc3ccccc3c2)cc1"
val = "> 100 µM"

[[record]]
compound = "CN1CCCS/C1=C1/SC(=S)N(c2ccccc2)C1=O"
val = "> 100 µM"


Record TGI for all entries; do not skip any.
1. COc1cc(/C=C2\CC3C4CCC5=CC(=O)CC[C@]5(C)C4CC[C@]3(C)C2=O)ccc1OCCN1CCCC1 (stereo not given in full)
2. CS(=O)(=O)Nc1cc(-c2ccc3ncc(C#N)c(Nc4ccc(F)c(Cl)c4)c3c2)cnc1Cl

[out]
5.02 µM
0.596 µM

---

Tested on: COLO 205 colon
run-description: NCI tumour cell line growth inhibition, 48 h
reported-property: TGI (µM)
Answers are plain numbers, in µM.

[[record]]
compound = "CCOC(=O)N1c2ccccc2N(C(=O)OCC)C1CC(=O)/C=C/c1ccccc1"
reported_property = "TGI"
val = 4.17

[[record]]
compound = "COc1cc2cc(C(=O)N3CC(CCl)c4ccc(NO)cc43)[nH]c2c(OC)c1OC (stereo unspecified)"
reported_property = "TGI"
val = 2.04


Record TGI for all entries; do not skip any.
1. OC1(C(Sc2ccccc2)Sc2ccccc2)CCCCCC1
2. CC(=O)OC(COc1ccc2c(c1)[n+]([O-])nc(N)[n+]2[O-])CN1CCCCC1 (stereo unspecified)
3. CS(=O)(=O)Nc1cc(-c2ccc3ncc(C#N)c(Nc4ccc(F)c(Cl)c4)c3c2)cnc1Cl
4. C=C1N(C)c2ccc(S(=O)(=O)c3ccc4c(c3)C(C)(C)C(=C)N4C)cc2C1(C)C
5. COc1cc2c(Nc3ccc(-c4ccc(N)cc4)cc3)ncnc2c(OC)c1OC
6. O=C(Cc1cc(O)ccc1O)NO

[out]
1: 57.8; 2: 30.5; 3: 0.943; 4: 29.8; 5: 7.94; 6: 36.3

---

I'd appreciate it if you could supply TGI values for the items below.
Test system: MALME-3M melanoma
run-description: NCI tumour cell line growth inhibition, 48 h
Give bare numbers, in µM.

As a guide, the following entries are already answered.
[[record]]
sample_smiles = "CCOC(=O)c1ccc(N=C2Sc3nc4ccccc4n3C2=Nc2ccc(C(=O)OCC)cc2)cc1"
tested_on = "MALME-3M melanoma"
val = 51.8

[[record]]
sample_smiles = "CCCCCCCCCN=C(N)c1ccc(N2CCN(c3ccc(C(N)=NCCCCCCCCC)cc3)CC2)cc1"
tested_on = "MALME-3M melanoma"
val = 3.74

[[record]]
sample_smiles = "O=C(Nc1ccccc1)OCCN=c1c2ccccc2ccc2ccccc12"
tested_on = "MALME-3M melanoma"
val = 46


Query compound follows.
Field TGI (entry `CCOC(=O)N1c2ccccc2N(C(=O)OCC)C1CC(=O)/C=C/c1ccccc1` ) reads 18.9

---

Test system: SK-MEL-2 melanoma
run-description: NCI tumour cell line growth inhibition, 48 h
reported-property: TGI

As a guide, the following entries are already answered.
[[record]]
compound = "CC(C)CC(N)C(=O)NC(CNC(CCC(N)=O)C(=O)NC(CC(C)C)C(=O)NC(CC(C)C)C(=O)O)Cc1ccc2ccccc2c1 (stereo unspecified)"
reported_property = "TGI"
val = "> 10 µM"

[[record]]
compound = "NNC(=O)/C(NC(=O)c1ccccc1)=C(\\N)c1cccc([N+](=O)[O-])c1"
reported_property = "TGI"
val = "> 100 µM"

[[record]]
compound = "O=C1c2ccccc2C(=O)c2c1oc1cc(O)c(Cl)cc21"
reported_property = "TGI"
val = "7.16 µM"

[[record]]
compound = "COc1ccc(-c2cc(=O)c3c(OC)c4ccoc4c(/C=C/C=O)c3o2)cc1"
reported_property = "TGI"
val = "84.6 µM"

[[record]]
compound = "CCOC(=O)C(C(=O)OCC)=C1C=C(c2ccccc2)c2ccccc21"
reported_property = "TGI"
val = "> 100 µM"


Record TGI for all entries; do not skip any.
1. Cc1ccc(C(=O)NC2C(=O)NC(C(C)C)C(=O)N3CCCC3C(=O)N(C)CC(=O)N(C)C(C(C)C)C(=O)OC2C)c2c1Oc1c(c(C(=O)NC3C(=O)NC(C(C)C)C(=O)N4CCCC4C(=O)N(C)CC(=O)N(C)C(C(C)C)C(=O)OC3C)c3nc(-c4ccccc4)c(=O)oc3c1C)N2 (stereo unspecified)
2. Cc1cc2c(cc1Cl)SC(NNCCO)=NS2(=O)=O
3. CC(=O)N1C(c2[nH]c3ccccc3c2Cc2ccccc2)CCN1c1ccccc1 (stereo unspecified)
4. CCCCCCCCCCCCCCCCCCN(C)CC(COC)OP(=O)([O-])OCC[N+](C)(C)C (stereo unspecified)
5. Cn1cc(-c2csc(-c3ccccc3)n2)c2cccnc21
6. CCC1(c2ccc(OC)c(OC)c2)CCN(S(=O)(=O)c2ccc(C)cc2)C1 (stereo unspecified)
7. NC(=O)c1c[nH]c2ncnc(N)c12
8. O=C(O)C1=C(CO)Oc2cc3c(cc2C1c1ccc2c(c1)OCO2)OCO3 (stereo unspecified)

[out]
1: 0.00278 µM; 2: > 100 µM; 3: > 10 µM; 4: 30.2 µM; 5: 42.3 µM; 6: > 100 µM; 7: > 100 µM; 8: > 100 µM

---

I'd appreciate it if you could supply TGI values for the items below.
Test system: HCC-2998 colon
run-description: NCI tumour cell line growth inhibition, 48 h

As a guide, the following entries are already answered.
[[record]]
compound = "COc1cc(-c2nc(N)c(C#N)c3c2CCS(=O)(=O)c2ccc(C)cc2-3)cc(OC)c1OC"
val = "> 100 µM"

[[record]]
compound = "CO/N=C(/C)COc1ccc2c(c1)oc(=O)c1cc(OC)ccc12"
val = "> 100 µM"

[[record]]
compound = "O=P1(Oc2ccc(Cl)cc2Cl)Oc2cc3ccccc3cc2O1"
val = "59.6 µM"

[[record]]
compound = "CCCCCc1cc(/C=C2/N=C(c3ccc[nH]3)C=C2OC)[nH]c1C"
val = "1.02 µM"

[[record]]
compound = "C/C=C\\C1OC1(C)c1cc(=O)c2c(C)cc3c(c2o1)C(=O)c1c(O)c(C2CC(C)(N(C)C)C(OC(C)=O)C(C)O2)cc(C2CC(N(C)C)C(O)C(C)O2)c1C3=O (centres undefined)"
val = "0.00646 µM"

[[record]]
compound = "c1ccc2c(c1)nc1ccccn12"
val = "> 100 µM"

[[record]]
compound = "O=C1CCC(=O)c2ccccc2N1"
val = "> 100 µM"

[[record]]
compound = "CCOC(=O)C(C(=O)OCC)c1cc(-c2cc3ccccc3o2)oc(=O)c1C#N"
val = "46.9 µM"

[[record]]
compound = "Cn1cc(-c2csc(-c3ccccc3)n2)c2cccnc21"
val = "31.1 µM"

[[record]]
compound = "COc1ccc(OC(=O)N2C/C(=C\\c3ccccc3)C(=O)/C(=C/c3ccccc3)C2)cc1"
val = "8.76 µM"


Record TGI for all entries; do not skip any.
1. COc1cc2ccnc(C#N)c2cc1OCc1ccccc1
2. Nc1c(F)c(F)c2c(c1F)N(CCCCCl)c1ccccc1S2
3. c1cc2c(cc1C1OCC3C(c4ccc5c(c4)OCO5)OCC13)OCO2 (centres undefined)
4. CC(C)[C@@]12C[C@@H](OC(=O)COC(=O)c3ccccc3)[C@@](C)(O1)[C@@H]1CC[C@@H](C)[C@H]1[C@@H]2OC(=O)/C=C/c1ccccc1
5. C#CN1C(=O)c2c(c(-c3ccccc3)c(-c3ccc(Oc4ccc(-c5c(-c6ccccc6)c6c(c(-c7ccccc7)c5-c5ccccc5)C(=O)N(C#C)C6=O)cc4)cc3)c(-c3ccccc3)c2-c2ccccc2)C1=O

[out]
1. > 100 µM
2. > 100 µM
3. > 100 µM
4. > 100 µM
5. > 100 µM
